meta.source: patent US9062033B2

# study_target: human OX1 receptors (Homo sapiens)
# Construct: expressed in transfected cells; host or cells: CHO cells
# Sequence (O43613 whole entry): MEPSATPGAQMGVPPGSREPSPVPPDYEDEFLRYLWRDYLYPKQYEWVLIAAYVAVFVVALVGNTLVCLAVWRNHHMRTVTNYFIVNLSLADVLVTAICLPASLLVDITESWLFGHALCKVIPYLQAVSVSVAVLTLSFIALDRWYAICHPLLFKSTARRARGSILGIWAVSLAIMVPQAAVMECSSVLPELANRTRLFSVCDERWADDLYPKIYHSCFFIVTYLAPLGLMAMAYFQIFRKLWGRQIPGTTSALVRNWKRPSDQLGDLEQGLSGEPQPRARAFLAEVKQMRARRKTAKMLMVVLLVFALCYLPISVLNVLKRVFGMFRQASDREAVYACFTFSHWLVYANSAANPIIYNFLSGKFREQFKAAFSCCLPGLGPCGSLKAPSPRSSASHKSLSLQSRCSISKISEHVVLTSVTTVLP
# assay_comment: Antagonistic activity against human OX1 receptor, [Ca2+]i fluorimetry (Fluo-4NW) in transfected CHO cells activated with orexin-A
# Assay type: cell-based
# run_conditions: CHO cells transfected with human recombinant OX1; orexin-A 3 nM; pKb = co-logarithm of apparent dissociation constant, modified Cheng Prusoff
property: Kb (nM)
Number in nM, nothing else.

[[record]]
compound = "Cc1ccc(-c2ncccn2)c(C(=O)N2CC3(CC3)C[C@H]2CNc2cnc(C(F)(F)F)cn2)n1 [Compound 3h]"
study_target = "human OX1 receptors (Homo sapiens)"
numeric_readout = 6.31

[[record]]
compound = "Cc1ccc(-c2ncccn2)c(C(=O)N2CC3(CC3)C[C@H]2CNc2nc3ccccc3o2)n1 [Compound E9]"
study_target = "human OX1 receptors (Homo sapiens)"
numeric_readout = 0.631

[[record]]
compound = "Cc1ccc(-c2ncccn2)c(C(=O)N2CC3(CC3)C[C@H]2CNc2cc(C(F)(F)F)c(Cl)cn2)c1 [Compound 1r]"
study_target = "human OX1 receptors (Homo sapiens)"
numeric_readout = 6.31

[[record]]
compound = "Cc1ccc(-c2ccccc2)c(C(=O)N2CC3(CC3)C[C@H]2CNc2ccc(C(F)(F)F)cn2)n1 [Compound 3b]"
study_target = "human OX1 receptors (Homo sapiens)"
numeric_readout = 2.51

[[record]]
compound = "O=C(c1cc(Cl)ccc1-c1ncccn1)N1CC2(CC2)C[C@H]1CNc1cc(Cl)c(C(F)(F)F)cn1 [Compound 1v]"
study_target = "human OX1 receptors (Homo sapiens)"
numeric_readout = 6.31


Lab note: measured Kb of O=C(c1c(F)cccc1-c1ncccn1)N1CC2(CC2)C[C@H]1CNc1cc(C(F)(F)F)ccn1 [Compound 1h] was 39.8

Form: compound = O=C(c1ncccc1-c1ccccn1)N1CC2(CC2)C[C@H]1CNc1ccc(C(F)(F)F)cn1 [Compound E7] ; Kb = 3.98

// field: Kb; key: Cc1ccc(-c2ccccc2)c(C(=O)N2CC3(CC3)C[C@H]2CNc2ncc(C(F)(F)F)cc2F)n1 [Compound 3e] ; value = 3.98

// Kb lookup, compound = Cc1ccc(-c2ccc(C#N)cc2)c(C(=O)N2CC3(CC3)C[C@H]2CNc2ccc(C(F)(F)F)cn2)n1 [Compound E8] , result: 20
